# measurement-protocol: Pharmacokinetic test on dogs
# Assay type: in vivo, male Beagle dogs
# reported-conditions: male, Beagle, plasma; dog, intravenous injection 1 mg/kg

molecule	clearance
Cc1nnc(-c2c[nH]c(=O)[nH]c2=O)cc1[C@H]1C[C@@H]1C(C)C [Reference compound 3, reference compound]	2.16 L/h/kg
O=c1[nH]cc(-c2cc([C@H]3C[C@@H]3C(F)F)c(Cl)nn2)c(=O)[nH]1 [Reference compound 2, reference compound]	0.65 L/h/kg
O=c1[nH]cc(-c2cc([C@H]3C[C@@H]3COC(F)(F)F)c(Cl)nn2)c(=O)[nH]1	0.53 L/h/kg
O=c1[nH]cc(-c2cc([C@@H]3C[C@H]3C(F)(F)F)c(Cl)nn2)c(=O)[nH]1	0.18 L/h/kg
O=c1[nH]cc(-c2cc([C@H]3C[C@@H]3CF)c(Cl)nn2)c(=O)[nH]1	0.73 L/h/kg
